- TARGET UNDER TEST: Estrogen receptor (Homo sapiens)
- PROTOCOL SUMMARY: qHTS assay to identify small molecule agonists of the estrogen receptor alpha (ER-alpha) signaling pathway using the BG1 cell line (AID 743079); further: on the % scale 0 is the no-effect control and ±100 the full control effect; nearly all actives have a fitted effect of over 20% in size
- CONDITION SET: BG1Luc4E2 cells, ERE-luciferase agonist, 22 h; series mostly up to 70.3 µM
Records with an inconclusive call do not appear. Calls of active or inactive are those of the source. The call rests on the fitted dose curve; in most records, active means well fitted activation curve with a large enough effect in the repeat runs; inconclusive means weak or mixed curves, or effect the other way; inactive means no such curve, though single readings can be large or run the other way.
Hi there, use one of these labels in your reply, thanks! true = active, false = inactive

Please review the entries below; each comes with its answer.
[[record]]
compound = "CCCCC1CCCCC(=O)O1 (centres undefined)"
answer_label = "false"

[[record]]
compound = "CCC(C(=O)NC(N)=O)c1ccccc1 (centres undefined)"
answer_label = "false"


Given CC(C)CCOC(=O)CC(C)C , state the outcome it received in this test.
false

Given CC(C)(C)C(=O)/C=C/c1ccc(Cl)cc1 , state the outcome it received in this test.
false

Given CCO[Si](CCCN=C=O)(OCC)OCC , state the outcome it received in this test.
false

Given CCCCOCC(C)OCC(C)O (centres undefined) , state the outcome it received in this test.
false

Given Cc1cc(C)cc(OCC2CNC(=O)O2)c1 (centres undefined) , state the outcome it received in this test.
false

###

- TARGET UNDER TEST: Cytochrome P450 2C19 (Homo sapiens) (UniProt P33261)
- Sequence (P33261 whole entry, looked up): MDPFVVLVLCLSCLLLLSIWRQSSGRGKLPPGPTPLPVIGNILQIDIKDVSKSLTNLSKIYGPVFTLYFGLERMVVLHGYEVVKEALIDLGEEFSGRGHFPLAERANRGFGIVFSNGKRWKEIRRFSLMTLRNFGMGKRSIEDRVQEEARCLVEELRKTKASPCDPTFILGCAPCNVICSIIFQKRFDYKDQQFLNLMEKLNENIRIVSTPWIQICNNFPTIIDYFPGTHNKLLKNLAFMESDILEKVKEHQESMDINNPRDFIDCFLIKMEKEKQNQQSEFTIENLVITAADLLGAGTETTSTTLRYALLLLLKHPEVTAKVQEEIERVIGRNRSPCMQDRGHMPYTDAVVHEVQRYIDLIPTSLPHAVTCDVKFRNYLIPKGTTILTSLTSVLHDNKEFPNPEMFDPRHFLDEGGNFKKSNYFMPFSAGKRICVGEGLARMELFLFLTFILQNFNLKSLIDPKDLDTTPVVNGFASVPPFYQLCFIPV
- PROTOCOL SUMMARY: Cytochrome P450 Family 2 Subfamily C Member 19 (CYP2C19) small molecule antagonists: luciferase reporter qHTS assay (AID 1671197); further: on the % scale 0 is the no-effect control and ±100 the full control effect; nearly all actives have a fitted effect of over 65% in size
- CONDITION SET: P450-Glo CYP2C19 enzyme, luciferin luminescence, 1 h; series mostly up to 115 µM
Records with an inconclusive call do not appear. Calls of active or inactive are those of the source. Calls follow the shape of the dose curve; as a rule, active = well fitted inhibition curve with a large enough effect in the repeat runs; inconclusive = weak or mixed curves; inactive = no such curve, though single readings can be large or run the other way.
PROPERTY MEASURED: outcome

Use the examples below as a reference point.
[[record]]
molecule = "O=c1[nH]c2ccccc2c(=O)n1CCCl"
target_under_test = "Cytochrome P450 2C19 (Homo sapiens) (UniProt P33261)"
experimental_result = "inactive"

[[record]]
molecule = "CCN(CC)C(=O)c1ccc(O)c(OC)c1"
target_under_test = "Cytochrome P450 2C19 (Homo sapiens) (UniProt P33261)"
experimental_result = "inactive"

[[record]]
molecule = "OCc1ccccn1"
target_under_test = "Cytochrome P450 2C19 (Homo sapiens) (UniProt P33261)"
experimental_result = "inactive"

[[record]]
molecule = "CCC(=O)c1cccc(Cl)c1"
target_under_test = "Cytochrome P450 2C19 (Homo sapiens) (UniProt P33261)"
experimental_result = "inactive"

[[record]]
molecule = "C=CCn1c(=O)n([C@@H]2O[C@H](CO)[C@@H](O)[C@H]2O)c2nc(N)[nH]c(=O)c21"
target_under_test = "Cytochrome P450 2C19 (Homo sapiens) (UniProt P33261)"
experimental_result = "inactive"

[[record]]
molecule = "Fc1ccccc1-c1ccccc1"
target_under_test = "Cytochrome P450 2C19 (Homo sapiens) (UniProt P33261)"
experimental_result = "inactive"


// switching to the query molecule
Item under review: CC(C)[N+](C)(C)CC(O)COc1cccc2ccccc12 (configuration not stated) . Reported outcome?
inactive

###

- PROTOCOL SUMMARY: qHTS assay for identifying genotoxic compounds that show differential cytotoxicity against isogenic chicken DT40 cell lines with known DNA damage response pathways - Rad54/Ku70 mutant cell line (AID 743015); further: nearly all actives have a fitted effect of over 60% in size
- CONDITION SET: DT40 Rad54/Ku70 mutant viability, CellTiter-Glo, 40 h; series mostly up to 66.8 µM
Results filed as inconclusive are left out. The source made the active and inactive calls. Calls come from the whole dose curve; as a rule, active = well fitted cell-killing curve with a large enough effect in the repeat runs; inconclusive = weak or mixed curves; inactive = no such curve, though single readings can be large or run the other way.
Hi there, use one of these labels in your reply, thanks! active, inactive

Please review the entries below; each comes with its answer.
[[record]]
compound = "CCCCCN(CCCCC)C(=O)C(CCC(=O)O)NC(=O)c1ccc(Cl)c(Cl)c1 (configuration not stated)"
answer_label = "inactive"

[[record]]
compound = "C=C(C)C(=O)OCCC(C)OC(=O)C(=C)C (configuration not stated)"
answer_label = "inactive"

[[record]]
compound = "Cc1cc(C)cc(OCC2CNC(=O)O2)c1 (configuration not stated)"
answer_label = "inactive"

[[record]]
compound = "COC(C(=O)O)c1ccccc1 (configuration not stated)"
answer_label = "inactive"

[[record]]
compound = "C=CCn1c(=O)n([C@@H]2O[C@H](CO)[C@@H](O)[C@H]2O)c2nc(N)[nH]c(=O)c21"
answer_label = "inactive"


Given COc1cccc(OC)c1 , state the outcome it received in this test.
inactive

Given Cc1ccc(Nc2ccc(O)c3c2C(=O)c2ccccc2C3=O)cc1 , state the outcome it received in this test.
inactive

Given CCC(=O)/C=C/c1ccc(OC)cc1 , state the outcome it received in this test.
active

Given CC(C)N1C(=O)c2ccccc2C1=O , state the outcome it received in this test.
inactive

Given c1ccc(CCCc2ccccn2)cc1 , state the outcome it received in this test.
inactive

Given C[C@H]1O[C@@H](n2cc(F)c(=O)[nH]c2=O)[C@H](O)[C@@H]1O , state the outcome it received in this test.
active

Given OCCCCCCO , state the outcome it received in this test.
inactive

###

- PROTOCOL SUMMARY: qHTS assay for small molecules that induce genotoxicity in human embryonic kidney cells expressing luciferase-tagged ATAD5 (AID 651632); further: on the % scale 0 is the no-effect control and ±100 the full control effect; nearly all actives have a fitted effect of over 15% in size
- CONDITION SET: HEK293T ATAD5-luciferase induction, 16 h; series mostly up to 83.3 µM
Inconclusive results are not listed. Calls of active or inactive are those of the source. Calls come from the whole dose curve; as a rule, active = well fitted activation curve with a large enough effect in the repeat runs; inconclusive = weak or mixed curves; inactive = no such curve, though single readings can be large or run the other way.
PROPERTY MEASURED: outcome

Use the examples below as a reference point.
[[record]]
compound = "O=C(O)c1ccccc1-c1ccc(C(F)(F)F)cc1"
property_measured = "outcome"
experimental_result = "inactive"

[[record]]
compound = "CCCCCCOC(=O)CC(CC(=O)OCCCCCC)(OC(=O)CCC)C(=O)OCCCCCC"
property_measured = "outcome"
experimental_result = "inactive"

[[record]]
compound = "CCCCCCC(CCCCCCCCCCC(=O)OCC(COC(C)=O)OC(C)=O)OC(C)=O (configuration not stated)"
property_measured = "outcome"
experimental_result = "inactive"

[[record]]
compound = "NC(=O)c1ncn([C@@H]2O[C@H](CO)[C@@H](O)[C@H]2O)c1O"
property_measured = "outcome"
experimental_result = "inactive"


Item under review: O=[N+]([O-])c1ccc(Oc2ccc([N+](=O)[O-])cc2)cc1 . Reported outcome?
inactive

Item under review: NS(=O)(=O)c1cc2c(cc1Cl)NC(CSCc1ccccc1)=NS2(=O)=O . Reported outcome?
inactive

Item under review: NC(=O)c1c(Cl)cccc1Cl . Reported outcome?
inactive

Item under review: CCCCc1ccc2cccc(S(=O)(=O)O)c2c1 . Reported outcome?
inactive

Item under review: COC(C(=O)O)c1ccccc1 (configuration not stated) . Reported outcome?
inactive

###

Reported max response values follow for various compounds
- PROTOCOL SUMMARY: qHTS RealTime-Glo MT Cell Viability Assay in HEK293 cells - 40 hour (AID 1224874); further: on the % scale 0 is the no-effect control and ±100 the full control effect; nearly all actives have a fitted effect of over 50% in size
- CONDITION SET: RealTime-Glo luminescence; hits give low values
Results filed as inconclusive are left out.
Field: numeric (%). Do not append units.

Use the examples below as a reference point.
[[record]]
compound = "CCOC(=O)Nc1ccc2c(c1)N(C(=O)CCN1CCOCC1)c1ccccc1S2"
units_label = "%"
experimental_result = -6.68

[[record]]
compound = "CCCc1ccccc1O"
units_label = "%"
experimental_result = -8.16

[[record]]
compound = "NC(=O)c1ncn([C@@H]2O[C@H](CO)[C@@H](O)[C@H]2O)c1O"
units_label = "%"
experimental_result = 9.45

[[record]]
compound = "C=C(C)C1CC=C(C)C(O)C1 (centres undefined)"
units_label = "%"
experimental_result = 9.55

[[record]]
compound = "Nc1ncnc2c1ncn2Cc1c(F)cccc1Cl"
units_label = "%"
experimental_result = -12.1

[[record]]
compound = "C=C(C)[C@H]1CC=C(C)CC1"
units_label = "%"
experimental_result = 0.727


Item under review: CCC(=O)Nc1cccc(N)c1 . Reported max response?
0.318

Item under review: CC(C)(C)C(=O)/C=C/c1ccc(Cl)cc1 . Reported max response?
-0.497

Item under review: CCC(C)(C)C1CCC(OC)CC1 (centres undefined) . Reported max response?
21.9

Item under review: O=C(CCOCCOCCOCCOCCC(=O)Nc1c(I)cc(I)c(C(=O)O)c1I)Nc1c(I)cc(I)c(C(=O)O)c1I . Reported max response?
-0.881

Item under review: CC12CCC(CC1=O)C2(C)C (centres undefined) . Reported max response?
-2.19

Item under review: CCCC=O . Reported max response?
6.1

Item under review: Nc1[nH]c(=O)ncc1F . Reported max response?
0.113

Item under review: CCCCCCCCN(C)CCCCCCCC . Reported max response?
4.39

###

- PROTOCOL SUMMARY: qHTS RealTime-Glo MT Cell Viability Assay in HEK293 cells - 16 hour (AID 1224872); further: top concentration of the series differs between compounds; on the % scale 0 is the no-effect control and ±100 the full control effect; nearly all actives have a fitted effect of over 50% in size
- CONDITION SET: RealTime-Glo luminescence; series mostly up to 76.8 µM
Results filed as inconclusive are left out. The source made the active and inactive calls. Calls follow the shape of the dose curve; as a rule, active = well fitted cell-killing curve with a large enough effect in the repeat runs; inconclusive = weak or mixed curves, or effect the other way; inactive = flat fitted curve, though single readings scatter.
PROPERTY MEASURED: activity change, negative = cytotoxicity

Use the examples below as a reference point.
[[record]]
molecule = "NC(=S)Nc1cccc2ccccc12"
property_measured = "activity change, negative = cytotoxicity"
experimental_result = "14.8% [at 6.97 µM] (inactive)"

[[record]]
molecule = "C=CCn1c(=O)n([C@@H]2O[C@H](CO)[C@@H](O)[C@H]2O)c2nc(N)[nH]c(=O)c21"
property_measured = "activity change, negative = cytotoxicity"
experimental_result = "inactive"

[[record]]
molecule = "C=C(C)C(=O)OCCCCCCCCCCCCCCCCCC"
property_measured = "activity change, negative = cytotoxicity"
experimental_result = "9.27% [at 15.8 µM] (inactive)"

[[record]]
molecule = "CC(C)(O)C(=O)c1ccc(OCCO)cc1"
property_measured = "activity change, negative = cytotoxicity"
experimental_result = "inactive"

[[record]]
molecule = "CN(C)N=Nc1ccccc1"
property_measured = "activity change, negative = cytotoxicity"
experimental_result = "inactive"


Item under review: COc1ccc2cc(C=O)ccc2c1 . Reported activity change, negative = cytotoxicity?
inactive

Item under review: CN(C)CCOC(c1ccc(Cl)cc1)c1ccccn1 (centres undefined) . Reported activity change, negative = cytotoxicity?
inactive

Item under review: COCCOC(=O)CC#N . Reported activity change, negative = cytotoxicity?
inactive

Item under review: Nc1ccc2cc(S(=O)(=O)O)ccc2c1 . Reported activity change, negative = cytotoxicity?
inactive

Item under review: CC(C)c1cccc(C(C)C)c1N . Reported activity change, negative = cytotoxicity?
inactive

Item under review: NS(=O)(=O)c1cc2c(cc1C(F)(F)F)NC(Cc1ccccc1)NS2(=O)=O (centres undefined) . Reported activity change, negative = cytotoxicity?
inactive

Item under review: NCCN1CCNC1=O . Reported activity change, negative = cytotoxicity?
inactive

Item under review: CO[Si](OC)(OC)OC . Reported activity change, negative = cytotoxicity?
inactive

Item under review: O=C(O)CCNC(=O)c1ccc(N=Nc2ccc(O)c(C(=O)O)c2)cc1 . Reported activity change, negative = cytotoxicity?
inactive
